# System: LNCaP tumor-bearing CB17-SCID mice
# assay.info: Biodistribution studies 24 h p.i.
# Assay type: in vivo
# condition.label: 177Lu-labelled, i.v. tail vein, mean±SD, n=4-5
So basically, if biodistribution: blood comes in under 0.004 % ID/g it's rule met, and if it's 0.004 % ID/g or more it's rule not met.

Req: Criterion: biodistribution: blood strictly below 0.004 % ID/g. Is it met by O=C(O)CC[C@H](NC(=O)N[C@@H](CCCCNC(=O)CCCCCCC(=O)NCCCC[C@@H](NC(=O)[C@@H](Cc1ccccc1)NC(=O)[C@@H](Cc1ccc(O)c(I)c1)NC(=O)CCC(C(=O)O)N1CCN(CC(=O)O)CCN(CC(=O)O)CCN(CC(=O)O)CC1)C(=O)O)C(=O)O)C(=O)O (some centres unmarked) [PSMA I&T, reference compound] ?
Resp: rule not met

Req: Criterion: biodistribution: blood strictly below 0.004 % ID/g. Is it met by CC(C)(C)[Si](O)(c1ccc(C(=O)NC[C@@H](NC(=O)CC[C@@H](C(=O)O)N2CCN(CC(=O)O)CCN(CC(=O)O)CCN(CC(=O)O)CC2)C(=O)NCC(=O)N[C@@H](CCCCNC(=O)CCC(=O)NCCC[C@@H](NC(=O)CC[C@H](NC(=O)N[C@@H](CCC(=O)O)C(=O)O)C(=O)O)C(=O)O)C(=O)O)cc1)C(C)(C)C ?
Resp: rule met

Req: Criterion: biodistribution: blood strictly below 0.004 % ID/g. Is it met by CC(C)(C)[Si](O)(c1ccc(C(=O)NC[C@@H](NC(=O)CC[C@@H](C(=O)O)N2CCN(CC(=O)O)CCN(CC(=O)O)CCN(CC(=O)O)CC2)C(=O)N[C@H](CCCCNC(=O)CCC(=O)NCCC[C@@H](NC(=O)CC[C@H](NC(=O)N[C@@H](CCC(=O)O)C(=O)O)C(=O)O)C(=O)O)C(=O)O)cc1)C(C)(C)C ?
Resp: rule met

Req: Criterion: biodistribution: blood strictly below 0.004 % ID/g. Is it met by CC(C)(C)[Si](O)(c1ccc(C(=O)NC[C@@H](NC(=O)CC[C@@H](C(=O)O)N2CCN(CC(=O)O)CCN(CC(=O)O)CCN(CC(=O)O)CC2)C(=O)N[C@H](CO)C(=O)NCCC(=O)NCCC(=O)NCCC[C@@H](NC(=O)CC[C@H](NC(=O)N[C@@H](CCC(=O)O)C(=O)O)C(=O)O)C(=O)O)cc1)C(C)(C)C ?
Resp: rule met

Req: Criterion: biodistribution: blood strictly below 0.004 % ID/g. Is it met by O=C(O)CC[C@H](NC(=O)N[C@@H](CCCCNC(=O)[C@H](Cc1ccc2ccccc2c1)NC(=O)[C@H]1CC[C@H](CNC(=O)CN2CCN(CC(=O)O)CCN(CC(=O)O)CCN(CC(=O)O)CC2)CC1)C(=O)O)C(=O)O [PSMA-617, reference compound] ?
Resp: rule not met

* * *

# System: LNCaP tumor-bearing CB17-SCID mice
# assay.info: Biodistribution studies 24 h p.i.
# Type: in vivo
# condition.label: 177Lu-labelled, LNCaP xenograft, mean±SD, n=4-5
readout.kind: biodistribution: tumor (% ID/g)
A number alone suffices; assume % ID/g.

Given item CC(C)(C)[Si](O)(c1ccc(C(=O)NC[C@@H](NC(=O)CC[C@@H](C(=O)O)N2CCN(CC(=O)O)CCN(CC(=O)O)CCN(CC(=O)O)CC2)C(=O)N[C@H](CCCCNC(=O)CCC(=O)NCCC[C@@H](NC(=O)CC[C@H](NC(=O)N[C@@H](CCC(=O)O)C(=O)O)C(=O)O)C(=O)O)C(=O)O)cc1)C(C)(C)C [7.3-SiOH] , the value recorded as its biodistribution: tumor is 7.3

Given item CC(C)(C)[Si](F)(c1ccc(C(=O)NC[C@@H](NC(=O)CN2CCN(CC(=O)O)CCN(CC(=O)O)CCN(CC(=O)O)CC2)C(=O)N[C@H](CCCCNC(=O)CCC(=O)NCCC[C@@H](NC(=O)CC[C@H](NC(=O)N[C@@H](CCC(=O)O)C(=O)O)C(=O)O)C(=O)O)C(=O)O)cc1)C(C)(C)C [rhPSMA-10, reference compound] , the value recorded as its biodistribution: tumor is 10.2

Given item CC(C)(C)[Si](O)(c1ccc(C(=O)NC[C@@H](NC(=O)CC[C@@H](C(=O)O)N2CCN(CC(=O)O)CCN(CC(=O)O)CCN(CC(=O)O)CC2)C(=O)NCC(=O)N[C@@H](CCCCNC(=O)CCC(=O)NCCC[C@@H](NC(=O)CC[C@H](NC(=O)N[C@@H](CCC(=O)O)C(=O)O)C(=O)O)C(=O)O)C(=O)O)cc1)C(C)(C)C [E102-SiOH] , the value recorded as its biodistribution: tumor is 4.4

Given item CC(C)(C)[Si](F)(c1ccc(C(=O)NC[C@@H](NC(=O)CC[C@@H](C(=O)O)N2CCN(CC(=O)O)CCN(CC(=O)O)CCN(CC(=O)O)CC2)C(=O)N[C@H](CCCCNC(=O)CCC(=O)NCCC[C@@H](NC(=O)CC[C@H](NC(=O)N[C@@H](CCC(=O)O)C(=O)O)C(=O)O)C(=O)O)C(=O)O)cc1)C(C)(C)C [rhPSMA-7.3, reference compound] , the value recorded as its biodistribution: tumor is 7.6

Given item CC(C)(C)[Si](O)(c1ccc(C(=O)NC[C@@H](NC(=O)CC[C@@H](C(=O)O)N2CCN(CC(=O)O)CCN(CC(=O)O)CCN(CC(=O)O)CC2)C(=O)N[C@H](CO)C(=O)NCCC(=O)NCCC(=O)NCCC[C@@H](NC(=O)CC[C@H](NC(=O)N[C@@H](CCC(=O)O)C(=O)O)C(=O)O)C(=O)O)cc1)C(C)(C)C [C007-SiOH] , the value recorded as its biodistribution: tumor is 5.4

Given item CC(C)(C)[Si](O)(c1ccc(C(=O)N[C@H](CCC(=O)NC[C@@H](NC(=O)CC[C@@H](C(=O)O)N2CCN(CC(=O)O)CCN(CC(=O)O)CCN(CC(=O)O)CC2)C(=O)NCCCCCC(=O)NCCC[C@@H](NC(=O)CC[C@H](NC(=O)N[C@@H](CCC(=O)O)C(=O)O)C(=O)O)C(=O)O)C(=O)O)cc1)C(C)(C)C [P105-SiOH] , the value recorded as its biodistribution: tumor is 6.3

Given item O=C(O)CC[C@H](NC(=O)N[C@@H](CCCCNC(=O)CCCCCCC(=O)NCCCC[C@@H](NC(=O)[C@@H](Cc1ccccc1)NC(=O)[C@@H](Cc1ccc(O)c(I)c1)NC(=O)CCC(C(=O)O)N1CCN(CC(=O)O)CCN(CC(=O)O)CCN(CC(=O)O)CC1)C(=O)O)C(=O)O)C(=O)O (some centres unmarked) [PSMA I&T, reference compound] , the value recorded as its biodistribution: tumor is 4.1

Given item O=C(O)CC[C@H](NC(=O)N[C@@H](CCCCNC(=O)[C@H](Cc1ccc2ccccc2c1)NC(=O)[C@H]1CC[C@H](CNC(=O)CN2CCN(CC(=O)O)CCN(CC(=O)O)CCN(CC(=O)O)CC2)CC1)C(=O)O)C(=O)O [PSMA-617, reference compound] , the value recorded as its biodistribution: tumor is 7.5
